- System: SUM149PT spheroids with HUVEC/MSC, viability
- measurement_protocol: Anticancer human tumor SUM149PT cell line growth inhibition [GQUAD];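 note: spheroids exposed to drugs for seven days before readout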;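 for viability, T/C: percent viability relative to DMSO vehicle control taken as 100%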
- experimental_conditions: second compound 10 µM; first compound 0.00999 µM; stronger effect = lower value
Below is a list of entries, each paired with its recorded viability, T/C value.
State just the number; it will be interpreted in %.

The cases that follow already have their viability, T/C on record.
Q: What value of viability, T/C on SUM149PT spheroids with HUVEC/MSC, viability does Cc1[nH]c2ccccc2c1CCNCc1ccc(/C=C/C(=O)NO)cc1 + CN(C)c1ccc(Nc2c3ccc(NC(=O)CCN4CCCC4)cc3nc3cc(NC(=O)CCN4CCCC4)ccc23)cc1 have?
A: 82.6

Q: Field: viability, T/C (SUM149PT spheroids with HUVEC/MSC, viability). Entry: CC[C@@]1(O)C(=O)OCc2c1cc1n(c2=O)Cc2cc3c(CN(C)C)c(O)ccc3nc2-1 + Cc1[nH]c2ccc(F)cc2c1-c1nc2c3cccnc3c3ncccc3c2[nH]1
A: 108

More entries:
Q: Query the reported viability, T/C for SUM149PT spheroids with HUVEC/MSC, viability; item: Cc1[nH]c2ccccc2c1CCNCc1ccc(/C=C/C(=O)NO)cc1 + Cc1[nH]c2ccc(F)cc2c1-c1nc2c3cccnc3c3ncccc3c2[nH]1
A: 89.4

====

- System: SUM149PT spheroids with HUVEC/MSC, viability
- measurement_protocol: Anticancer human tumor SUM149PT cell line growth inhibition [GQUAD];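 note: spheroids exposed to drugs for seven days before readout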;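 for viability, T/C: percent viability relative to DMSO vehicle control taken as 100%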
- experimental_conditions: second compound 1 µM; first compound 1 µM; stronger effect = lower value
readout_label: viability, T/C (%)
Answer with a number only, understood to be in %.

Q: Value lookup for viability, T/C; key = O=c1[nH]cc(F)c(=O)[nH]1 + Cc1cnc(CNC(=O)c2c(=O)c3ccc(N4CCCN(C)CC4)nc3n3c2sc2ccccc23)cn1
A: 40.9

Q: State the recorded viability, T/C for this entry: O=C(c1cc(Cc2n[nH]c(=O)c3ccccc23)ccc1F)N1CCN(C(=O)C2CC2)CC1 + CN(C)c1ccc(Nc2c3ccc(NC(=O)CCN4CCCC4)cc3nc3cc(NC(=O)CCN4CCCC4)ccc23)cc1
A: 104

Q: Look up viability, T/C for this compound: CC1COCCN1c1cc(C2(S(C)(=N)=O)CC2)nc(-c2ccnc3[nH]ccc23)n1 (stereo not given) + Cc1[nH]c2ccc(F)cc2c1-c1nc2c3cccnc3c3ncccc3c2[nH]1
A: 83.9

More entries:
Q: Would you mind telling me what viability, T/C value was observed for COc1cccc2c1C(=O)c1c(O)c3c(c(O)c1C2=O)CC(O)(C(=O)CO)CC3OC1CC(N)C(O)C(C)O1 (stereo not given) + Cc1[nH]c2ccc(F)cc2c1-c1nc2c3cccnc3c3ncccc3c2[nH]1 ?
A: 19.4

Q: Could you tell me which viability, T/C is on file for CC(=O)O[C@H]1C(=O)[C@@]2(C)[C@H]([C@H](OC(=O)c3ccccc3)[C@]3(O)C[C@H](OC(=O)[C@H](O)[C@@H](NC(=O)c4ccccc4)c4ccccc4)C(C)=C1C3(C)C)[C@]1(OC(C)=O)CO[C@@H]1C[C@@H]2O + CN(C)c1ccc(Nc2c3ccc(NC(=O)CCN4CCCC4)cc3nc3cc(NC(=O)CCN4CCCC4)ccc23)cc1 ?
A: 13.8

====

- Tested on: SUM149PT spheroids with HUVEC/MSC, viability
- measurement_protocol: Anticancer human tumor SUM149PT cell line growth inhibition [GQUAD];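 note: spheroids exposed to drugs for seven days before readout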;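 for viability, T/C: percent viability relative to DMSO vehicle control taken as 100%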
- experimental_conditions: second compound 0.0316 µM; first compound 10 µM; stronger effect = lower value
Reported viability, T/C values are given for each entry in this list.
Response body: numeric value in %, unit text excluded.

Past entries and their recorded results:
Q: Reported viability, T/C for CCCS(=O)(=O)Nc1ccc(F)c(C(=O)c2c[nH]c3ncc(-c4ccc(Cl)cc4)cc23)c1F + CN(C)c1ccc(Nc2c3ccc(NC(=O)CCN4CCCC4)cc3nc3cc(NC(=O)CCN4CCCC4)ccc23)cc1 : what is it?
A: 42.4

Q: # get_value(readout='viability, T/C', item= O=C(NO)c1cnc(N2CCN(S(=O)(=O)c3ccc4ccccc4c3)CC2)nc1 + CN(C)c1ccc(Nc2c3ccc(NC(=O)CCN4CCCC4)cc3nc3cc(NC(=O)CCN4CCCC4)ccc23)cc1 )
A: 3.07

Q: Consider the compound CC1COCCN1c1cc(C2(O)CC3CCC(C2)O3)c2cnn(-c3ccn[nH]3)c2n1 (centres undefined) + Cc1cnc(CNC(=O)c2c(=O)c3ccc(N4CCCN(C)CC4)nc3n3c2sc2ccccc23)cn1 and give its measured viability, T/C.
A: 15.7

***
Q: I have this compound here, CC(=O)O[C@H]1C(=O)[C@@]2(C)[C@H]([C@H](OC(=O)c3ccccc3)[C@]3(O)C[C@H](OC(=O)[C@H](O)[C@@H](NC(=O)c4ccccc4)c4ccccc4)C(C)=C1C3(C)C)[C@]1(OC(C)=O)CO[C@@H]1C[C@@H]2O + Cc1cnc(CNC(=O)c2c(=O)c3ccc(N4CCCN(C)CC4)nc3n3c2sc2ccccc23)cn1 , and I need its recorded viability, T/C.
A: 16.7

====

- Test system: SUM149PT spheroids with HUVEC/MSC, viability
- measurement_protocol: Anticancer human tumor SUM149PT cell line growth inhibition [GQUAD];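 note: spheroids exposed to drugs for seven days before readout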
- experimental_conditions: curve of first compound; second compound 0.316 µM
# Lookup of reported pIC50 keyed by entry
# log scale: pIC50 equals minus log10 of the concentration in mol/L

Q: Quick one: pIC50 for Nc1ccn(C2OC(CO)C(O)C2(F)F)c(=O)n1 (stereo not given) + Cc1[nH]c2ccc(F)cc2c1-c1nc2c3cccnc3c3ncccc3c2[nH]1 ?
A: 7.19

Further cases:
Q: Please look up its pIC50: O=C(c1cc(Cc2n[nH]c(=O)c3ccccc23)ccc1F)N1CCN(C(=O)C2CC2)CC1 + Cc1cnc(CNC(=O)c2c(=O)c3ccc(N4CCCN(C)CC4)nc3n3c2sc2ccccc23)cn1
A: 5.30

Q: Looking for the measured pIC50 of O=C(NO)c1cnc(N2CCN(S(=O)(=O)c3ccc4ccccc4c3)CC2)nc1 + Cc1[nH]c2ccc(F)cc2c1-c1nc2c3cccnc3c3ncccc3c2[nH]1 , can you help?
A: 6.27

====

- Test system: SUM149PT spheroids with HUVEC/MSC, viability
- measurement_protocol: Anticancer human tumor SUM149PT cell line growth inhibition [GQUAD];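 note: spheroids exposed to drugs for seven days before readout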;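 for viability, T/C: percent viability relative to DMSO vehicle control taken as 100%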
- experimental_conditions: second compound 0.316 µM; first compound 0.1 µM; stronger effect = lower value
viability, T/C less than 50% is met; viability, T/C greater than or equal to 50% is not met.

Q: Determine whether this compound shows viability, T/C lower than 50% (ties excluded): C=CCn1c(=O)c2cnc(Nc3ccc(N4CCN(C)CC4)cc3)nc2n1-c1cccc(C(C)(C)O)n1 + Cc1cnc(CNC(=O)c2c(=O)c3ccc(N4CCCN(C)CC4)nc3n3c2sc2ccccc23)cn1
A: met

Q: Does COc1cc(C2c3cc4c(cc3C(OC3OC5COC(C)OC5C(O)C3O)C3COC(=O)C23)OCO4)cc(OC)c1O (stereo not given) + Cc1cnc(CNC(=O)c2c(=O)c3ccc(N4CCCN(C)CC4)nc3n3c2sc2ccccc23)cn1 have viability, T/C strictly under 50%?
A: met

Q: Identify whether the compound O=C(NO)c1cnc(N2CCN(S(=O)(=O)c3ccc4ccccc4c3)CC2)nc1 + Cc1[nH]c2ccc(F)cc2c1-c1nc2c3cccnc3c3ncccc3c2[nH]1 records viability, T/C below 50%.
A: not met

Q: Lab log: compare recorded viability, T/C with 50%; is it strictly lower for C=CC(=O)N1CCN(c2nc(=O)n(-c3c(C)ccnc3C(C)C)c3nc(-c4c(O)cccc4F)c(F)cc23)C(C)C1 (stereo not given) + Cc1cnc(CNC(=O)c2c(=O)c3ccc(N4CCCN(C)CC4)nc3n3c2sc2ccccc23)cn1 ?
A: not met

Q: Please check: viability, T/C for CC1COCCN1c1cc(-c2ccnn2C)c2ccnc(-c3ccn[nH]3)c2n1 (stereo not given) + Cc1cnc(CNC(=O)c2c(=O)c3ccc(N4CCCN(C)CC4)nc3n3c2sc2ccccc23)cn1 , strictly under 50% or not?
A: met

====

Reported viability, T/C is given for each of the following compounds.
- Test system: SUM149PT spheroids with HUVEC/MSC, viability
- measurement_protocol: Anticancer human tumor SUM149PT cell line growth inhibition [GQUAD];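 note: spheroids exposed to drugs for seven days before readout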;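 for viability, T/C: percent viability relative to DMSO vehicle control taken as 100%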
- experimental_conditions: second compound 0.1 µM; first compound 3.16 µM; stronger effect = lower value
Just the number in %, nothing appended.

The examples below pair each entry with its known result.
Q: Look up viability, T/C for this compound: Cc1cccc(N(C)C(=O)C2C(O)CCN2c2nc(C)cc(C(F)(F)F)c2C#N)c1 (stereo not drawn) + Cc1cnc(CNC(=O)c2c(=O)c3ccc(N4CCCN(C)CC4)nc3n3c2sc2ccccc23)cn1
A: 75.6

Q: Returns the measured viability, T/C for the input compound. Input: CCCS(=O)(=O)Nc1ccc(F)c(C(=O)c2c[nH]c3ncc(-c4ccc(Cl)cc4)cc23)c1F + Cc1[nH]c2ccc(F)cc2c1-c1nc2c3cccnc3c3ncccc3c2[nH]1
A: 82.6

More entries:
Q: Fill in: viability, T/C of Cc1cccc(N(C)C(=O)C2C(O)CCN2c2nc(C)cc(C(F)(F)F)c2C#N)c1 (stereo not drawn) + Cc1[nH]c2ccc(F)cc2c1-c1nc2c3cccnc3c3ncccc3c2[nH]1 is ___
A: 98
